Target: hMAO-A (Homo sapiens)
Construct: gene MAOA; recombinant hMAO-A
Sequence (P21397 whole entry): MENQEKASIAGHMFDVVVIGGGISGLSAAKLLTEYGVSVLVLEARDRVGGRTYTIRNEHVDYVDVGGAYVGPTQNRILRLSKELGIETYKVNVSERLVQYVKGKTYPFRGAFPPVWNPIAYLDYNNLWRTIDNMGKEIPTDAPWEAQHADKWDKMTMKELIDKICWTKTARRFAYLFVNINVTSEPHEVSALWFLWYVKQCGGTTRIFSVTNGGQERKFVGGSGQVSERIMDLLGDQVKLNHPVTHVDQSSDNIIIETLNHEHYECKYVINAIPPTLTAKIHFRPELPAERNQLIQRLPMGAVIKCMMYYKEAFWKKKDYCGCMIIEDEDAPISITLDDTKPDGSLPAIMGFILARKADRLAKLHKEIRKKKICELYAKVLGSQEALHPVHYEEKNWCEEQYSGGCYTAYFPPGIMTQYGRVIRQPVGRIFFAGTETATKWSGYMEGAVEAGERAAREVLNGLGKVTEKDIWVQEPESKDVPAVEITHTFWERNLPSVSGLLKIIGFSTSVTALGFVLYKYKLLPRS
Assay: Amplex Red MAO fluorimetric assay, % inhibition at […]
Type: biochemical
Conditions: read-out: hMAO-A % Inh 100 μM
Consider the following compounds; for each one, report its inhibition at 100 µM.
The answer consists of two parts: a number and, after it, its unit.

> print(dat)
                               entry.smiles  value.measured
1  O=C(/C=C(O)/C=C/c1cc(O)c(O)c(O)c1)/C=C/c1cc2ccc(O)c(O)c2oc1=O           54.3%
2  O=C(/C=C(O)/C=C/c1cc(O)c(O)cc1O)/C=C/c1cc2ccc(O)c(O)c2oc1=O           60.9%
3  O=C(/C=C(O)/C=C/c1cc(O)c(O)c(O)c1)/C=C/c1cc2cc(O)c(O)cc2oc1=O           51.5%

Proceed to the following item.
Could you tell me which inhibition at 100 µM is on file for O=C(/C=C(O)/C=C/c1cc(O)c(O)cc1O)/C=C/c1cc2cc(O)c(O)cc2oc1=O ?
58.2%
